Assay: NCI Yeast Anticancer Drug Screen. Data for the cln2 rad14 strain (AID 165);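 note: 0% = growth equal to vehicle treated cultures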
Settings: S. cerevisiae cln2 rad14 strain, at 50.0 µM, hits give high values
Experimental: Growth inhibition of yeast strains with defined genetic alterations is measured as a screen for potential anti-cancer activity. Selected strains with alterations in DNA damage repair or cell cycle control were exposed to compounds and growth inhibition was measured relative to vehicle treated controls. The strain used in this assay is cln2 rad14
Compounds without any hit were thinned out: in the full panel of roughly 79,000, 15% have a hit. Active and inactive are the calls of the source. Cut-off read from the data, not from the text of the source: active = growth inhibition above about 70%; inactive = the rest.
VALUE_KIND: growth inhibition

COMPOUND: COC(COC(N)=O)C1=C(N2CC2)C(=O)C(C)=C(N2CC2)C1=O (centres undefined)
MEAS_VALUE: 50.6% (inactive)
//
COMPOUND: NC(=O)/C=C/C(=O)O (tested in a mixture with another compound)
MEAS_VALUE: 23.1% (inactive)
//
COMPOUND: O=C(/C=C(\c1ccccc1)N1CC1)c1ccccc1
MEAS_VALUE: 0.55% (inactive)

Switching to the query record.
For the compound shown here, CC(=O)[CH-]C(=O)c1ccccc1.CC(=O)[CH-]C(=O)c1ccccc1.C[C@]12CCC(=O)C=C1CC[C@@H]1C2CC[C@@]2(C)C1CC[C@@H]2[O-].C[C@]12CCC(=O)C=C1CC[C@@H]1C2CC[C@@]2(C)C1CC[C@@H]2[O-].Cl.[Ti+4] (some centres undefined) , give the reported growth inhibition.
50.9% (inactive)

Just for reference, PubChem BioAssay (NCI) is where these values come from.
